biological target: Galectin-1 (Homo sapiens); assay: Potency index, ratio of test compound IC50 to (2S,3R,4S,5R,6R)-2-(((2R,3S,4R,5R,6R)-4,5 dihydroxy-2-(hydroxymethyl)-6 methoxytetrahydro-2H-pyran-3-yl)oxy)-6(hydroxymethyl)tetrahydro-2H-pyran-3,4,5-triol IC50 for inhibition of asialofetuin binding to human recombinant Gal-1 transfected in Escherichia coli BL21 (DE3) incubated for 2 hrs by competitive solid-phase assay
quantity: Ratio IC50
No unit in the answer, only the number.

COc1cc(C(=O)O)ccc1O[C@@H]1O[C@H](CO)[C@@H](O[C@@H]2O[C@H](CO)[C@H](O)[C@H](OS(=O)(=O)O)[C@H]2O)[C@H](O)[C@H]1O :: 0.53
C#CCO[C@@H]1O[C@H](CO)[C@@H](O[C@@H]2O[C@H](CO)[C@H](O)[C@H](O)[C@H]2O)[C@H](O)[C@H]1NC(C)=O :: 1.45

Notebook: pull reported Ratio IC50 for Galectin-1 (Homo sapiens), entry "O=[N+]([O-])c1ccc(O[C@@H]2O[C@H](CO)[C@@H](O[C@@H]3O[C@H](CO)[C@H](O)[C@H](O)[C@H]3O)[C@H](O)[C@H]2O)cc1"
0.89

---

Reported Ratio IC50 values for a set of compounds
target: Galectin-1 (Homo sapiens); assay: Potency index, ratio of test compound IC50 to (2S,3R,4S,5R,6R)-2-(((2R,3S,4R,5R,6R)-4,5 dihydroxy-2-(hydroxymethyl)-6 methoxytetrahydro-2H-pyran-3-yl)oxy)-6(hydroxymethyl)tetrahydro-2H-pyran-3,4,5-triol IC50 for inhibition of asialofetuin binding to human recombinant Gal-1 transfected in Escherichia coli BL21 (DE3) incubated for 2 hrs by competitive solid-phase assay
No unit in the answer, only the number.

COc1cc(CCC(=O)O)ccc1O[C@@H]1O[C@H](CO)[C@@H](O[C@@H]2O[C@H](CO)[C@H](O)[C@H](O)[C@H]2O)[C@H](O)[C@H]1O :: 0.56
C#CCO[C@@H]1O[C@H](CO)[C@@H](O[C@@H]2O[C@H](CO)[C@H](O)[C@H](O[C@]3(C(=O)O)C[C@H](O)[C@@H](NC(C)=O)[C@H]([C@@H](O)[C@H](O)CO)O3)[C@H]2O)[C@H](O)[C@H]1NC(C)=O :: 1.31
COC(=O)c1ccc(O[C@@H]2O[C@H](CO)[C@@H](O[C@@H]3O[C@H](CO)[C@H](O)[C@H](O)[C@H]3O)[C@H](O)[C@H]2O)c(OC)c1 :: 1.02
C#CCO[C@@H]1O[C@H](CO)[C@@H](O[C@@H]2O[C@H](CO)[C@H](O)[C@H](OS(=O)(=O)O)[C@H]2O)[C@H](O)[C@H]1NC(C)=O :: 0.65
O=[N+]([O-])c1ccc(O[C@@H]2O[C@H](CO)[C@@H](O[C@@H]3O[C@H](CO)[C@H](O)[C@H](OS(=O)(=O)O)[C@H]3O)[C@H](O)[C@H]2O)cc1 :: 0.79

Now take the following compound into account.
Quick one: Ratio IC50 for "COc1cc(C=O)ccc1O[C@@H]1O[C@H](CO)[C@@H](O[C@@H]2O[C@H](CO)[C@H](O)[C@H](OS(=O)(=O)O)[C@H]2O)[C@H](O)[C@H]1O" ?
0.82

---

molecular target: Galectin-1 (Homo sapiens, UniProt P09382); experiment: Binding affinity to human recombinant Gal-1 assessed as change in enthalpy by ITC analysis
Sequence (P09382 whole entry): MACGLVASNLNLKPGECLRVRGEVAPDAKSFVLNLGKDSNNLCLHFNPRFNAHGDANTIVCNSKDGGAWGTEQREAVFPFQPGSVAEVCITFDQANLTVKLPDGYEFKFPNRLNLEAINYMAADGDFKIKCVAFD
Reported deltaH values for a set of molecules
Field: numeric (kcal/mol). Do not append units.

In the examples that follow, each entry is paired with its recorded deltaH.
COc1cc(C(=O)OC(C)(C)C)ccc1O[C@@H]1O[C@H](CO)[C@@H](O[C@@H]2O[C@H](CO)[C@H](O)[C@H](OS(=O)(=O)O)[C@H]2O)[C@H](O)[C@H]1O :: -6.93
COc1cc(C(=O)OC(C)(C)C)ccc1O[C@@H]1O[C@H](CO)[C@@H](O[C@@H]2O[C@H](CO)[C@H](O)[C@H](O)[C@H]2O)[C@H](O)[C@H]1O :: -6.67
COc1cc(C(=O)O)ccc1O[C@@H]1O[C@H](CO)[C@@H](O[C@@H]2O[C@H](CO)[C@H](O)[C@H](OS(=O)(=O)O)[C@H]2O)[C@H](O)[C@H]1O :: -5.28

Now take the following molecule into account.
Quick one: deltaH for OC[C@H]1O[C@@H](O[C@H]2[C@H](O)[C@@H](O)C(O)O[C@@H]2CO)[C@H](O)[C@@H](O)[C@H]1O (some centres undefined) ?
-6.79

Ref: ChEMBL document CHEMBL5365539
